ASSAY_NOTES: endothelial E-selectin expression blockers – imaging, HUVEC, immunofluorescence, MLSMR starter and 10KST1 sets, primary screen (AID 487);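 further: 100% = median nuclei count of all wells on the same plate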
TEST_CONTEXT: HUVEC TNFalpha-induced E-selectin immunofluorescence imaging, at 2 µM; measured here: cell number, toxicity
Provide the reported nuclei count of each item.
Form entry: value (%) — number only.

Which value of nuclei count has been reported for CCSc1nnc(NC(=O)CCNS(=O)(=O)c2cc(Br)cnc2N)s1 in the records? 80.5

If you can, please state the reported nuclei count value of O=C(NC1CCCC1)C(c1ccco1)N(Cc1ccccc1)C(=O)c1csnn1 (stereo unspecified) . 107

What does the record list as nuclei count for COC(=O)CCSCc1cn2cc(Cl)ccc2n1 ? 112

Fill in the blank: the reported nuclei count of CCOC(=O)C1CCCN(C(=O)c2cn(C)c(=O)c3cc(OC)c(OC)cc23)C1 (stereo unspecified) is ____. 110

// lookup nuclei count for Cc1nc2c(C(=O)O)cnn2c(C)c1Cc1ccccc1F 105

Record request: nuclei count value, item Cn1c(SCc2nc3ccccc3c(=O)[nH]2)nnc1-c1ccco1 131

Form field: reported nuclei count of O=S(=O)(Nc1cccnc1)c1cc(Cl)ccc1Cl 115

Consider the compound O=C(Nc1nc2c(s1)CCCC2)C1COc2ccccc2O1 (stereo unspecified) and give its measured nuclei count. 114

Requested field: nuclei count. Item: Cc1cc(C)nc(/N=C2\NC(=O)CC(C(=O)O)N2c2ccc(Cl)cc2)n1 (stereo unspecified) 107

For COc1ccc(CCNS(=O)(=O)c2ccc3oc(C(=O)O)c(C)c3c2)cc1OC , what is its reported nuclei count? 114

Quick one: nuclei count of CCCC(=O)Nc1cc(C)c2c(=O)oc3ccccc3c2n1 ? 121

Data request, read-out nuclei count, for COc1cccc(-c2nc(CS(=O)CC(=O)NCCCOC(C)C)c(C)o2)c1 (stereo unspecified) 95.8

Look up nuclei count for this compound: CCOc1ccc(Cc2nn[nH]n2)cc1 141

Which value of nuclei count has been reported for O=S(=O)(c1ccc(Br)s1)N1CCN(c2ccccc2)CC1 in the records? 102

Item CC1CCN(C(=O)CSc2nnc(Cc3cc(=O)[nH]c(=O)[nH]3)n2-c2ccc(Cl)cc2)CC1 has what recorded nuclei count? 105

Name the reported nuclei count value associated with the compound Cc1cc(C(=O)NCCN2CCCCC2C)n(-c2ccccc2)n1 (stereo unspecified) 113

For O=C(NCCN1C(=O)C2C3C=CC(C3)C2C1=O)Nc1ccccn1 (stereo unspecified) , what is its reported nuclei count? 108

Quick one: nuclei count of Cc1nn(-c2ccc(F)cc2)c2sc(C(=O)N3CCCCCC3)cc12 ? 113

Recorded nuclei count for O=C(NCC1CCCO1)c1cccc(N2CCCC2=O)c1 (stereo unspecified) , please? 115

nuclei count for CCOC(=O)/C=C1\CC(=O)Nc2nonc2N1 ? 118

Quick one: nuclei count of N#Cc1c(N)c(C(=O)c2ccccc2)n2c1CCCC2 ? 96.6

Given CCOc1ccc(-c2nnc3sc(-c4c(OC)cccc4OC)nn23)cc1 , state its recorded nuclei count. 111

# nuclei count lookup, item COc1cccc(/C=N/n2c(-c3ccco3)nc3ccccc3c2=O)c1 105

// query nuclei count value for entry COc1ccc(S(=O)(=O)Nc2ccc(F)c(F)c2)cc1Cl 98.5

Consider the compound shown here: CSCCC(NC(=O)c1ccco1)C(=O)OC(C)C(=O)NC(=O)NC1CCCCC1 (stereo unspecified) What is its recorded nuclei count? 100

What measured nuclei count goes with CCCN(CCC)C(=O)c1c(C)[nH]c(C(=O)OCC)c1C ? 106

If you can, please state the reported nuclei count value of CCOc1ccccc1OCCCCN1CCCC1 . 122

Can you share its nuclei count? I mean this compound: COC(=O)CSc1ncccc1-c1nc2ccccc2[nH]1 99.2

Any idea what nuclei count was measured for COc1ccc(NC(=O)CN(c2ccc(C(C)C)cc2)S(=O)(=O)c2c(C)noc2C)cc1OC ? 108

For the compound CCN1CCN(C(=O)C2CC(c3ccc(F)cc3)=NO2)CC1 (stereo unspecified) , what nuclei count is on record? 108

If you can, please state the reported nuclei count value of N#Cc1c2n(c(=O)[nH]c1=O)CCCCC2 . 110

Find the recorded nuclei count belonging to O=C(CSc1nnnn1-c1ccccc1)c1cc2ccccc2oc1=O and report it. 117

Endpoint output: nuclei count of COC(=O)C1=C(C)NC2=C(C(=O)CCC2)C1c1coc2ccccc2c1=O (stereo unspecified) . Value? 111

Quick one: nuclei count of COc1ccc2c(c1)C(C)=CC(C)(C)N2C(=O)CSc1nnc(-c2ccc(C)cc2)o1 ? 117

What measured nuclei count goes with Cc1ccc2c(C)nc(Nc3nc(CSc4nnnn4-c4ccccc4)cc(=O)[nH]3)nc2c1 ? 101

Which nuclei count value is on record for Cc1ccc(Cn2nnc(C(=O)Nc3cccc(C)c3C)c2N)cc1 ? 150

I'd like to know its nuclei count. The compound in question is CCOC(=O)c1cccc(NC(=O)CSc2nnc(-c3cccnc3)n2C)c1 134

Give the measured nuclei count of Cc1cc(C)nc(NC2=NCC(=O)N2c2ccccc2Br)n1 . 115

What does the record list as nuclei count for COc1ccc(C(=O)N2CCN(C3CCC(c4ccccc4)CC3)CC2)cc1OC (stereo unspecified) ? 83.9

May I ask what nuclei count has been recorded for CCOC(=O)CC(=O)Nc1c(C)cc(C)cc1C ? 105

So what does the record say about nuclei count for CN1CCN(C(c2cccc(C(F)(F)F)c2)c2nnnn2C(C)(C)C)CC1 (stereo unspecified) ? 94.8

Which measured nuclei count value corresponds to Cc1ccc(/C=c2\sc3nc(-c4ccccc4Br)nn3c2=O)o1 ? 94.1

# query: nuclei count of entry O=C1NC2(Nc3ccccc31)C(=O)Nc1ccccc12 (stereo unspecified) 106

Request the reported nuclei count associated with CCOCCCNC(=O)C1CCC(CNS(=O)(=O)c2cccc3nsnc23)CC1 (stereo unspecified) 119

Any idea what nuclei count was measured for c1ccc(-n2cnc3cc(NCc4ccccn4)ccc32)cc1 ? 183

Requested read-out: nuclei count. Entry: COc1ccc(CCNC(=O)CSCc2n[nH]c(=O)[nH]2)cc1OC 131

====

ASSAY_NOTES: TLR3 IRF3 reporter activation blockers – cell-based, poly I:C stimulus, luciferase, 10K MLSCN set, primary screen (AID 602277)
TEST_CONTEXT: HEK293-TLR3 RL24 IRF3 luciferase reporter, at 10 µM, stronger effect = higher value
inhibition class ranges: bin 1 = under 10%, bin 2 = from 10% up to 20%, bin 3 = 20% and over

# bin label for Cc1noc(/C=C/N(C)C)c1S(=O)(=O)N1CCCC(C(=O)NCCC2=CCCCC2)C1 (centres undefined) bin 1

Sort Cc1ccc(NCC(O)C(O)C(O)CO)cc1C (centres undefined) into one of the categories. bin 1

Categorize the following entry: COc1ccc2c(c1OC)C(=O)OC2CC(=O)c1ccc(O)cc1 (centres undefined) bin 3

Which of the defined bands does the recorded inhibition of CCN1C(=O)C(C(=O)Nc2ccc(OC)cc2)C2CC1(C)Oc1ccccc12 (centres undefined) sit within? bin 1

Would you mind sorting Cn1c(Cc2ccccc2)nnc1SCC(=O)c1ccc(Br)s1 into the appropriate category? bin 2

Band for the recorded inhibition of COc1ccc(-c2cc(C(F)(F)F)n3ncc(C(=O)NCC4CCCO4)c3n2)cc1 (centres undefined) ? bin 3

Assign a category based on measured inhibition for COc1ccc(CN(C2CCCC2)S(=O)(=O)c2ccc(-n3cnnn3)cc2)cc1OC and give only the class name. bin 2

Which band does CCOc1cccc(C(=O)N(Cc2ccco2)C2CCS(=O)(=O)C2)c1 (centres undefined) fall in? bin 2

Kindly state the category for this molecule: O=C(c1ccc(COc2c(F)c(F)c(F)c(F)c2F)o1)N1CCOCC1 bin 3

Tag the class for CCOC(=O)CN1C(=O)C2(OCCCO2)c2ccccc21 bin 2

GET /class?item= COc1cc2c(cc1OC)C(c1cccnc1)CC(=O)N2 (centres undefined) bin 2

Band of O=S(c1ccsc1)c1ccsc1 ? bin 3

Classify this molecule: CCOc1ccc(CN2C(=O)c3ccccc3C2C(=O)NCc2cccnc2)cc1 (centres undefined) bin 2

Which class holds O=C(NCC1CCCO1)C1c2ccccc2C(=O)N1C1CCCCCC1 (centres undefined) ? bin 2

Returns: class label. Input: CCCN1C2CCCC1CC(NC(=O)c1ccccc1F)C2 (centres undefined) bin 2

Which class does O=C(c1ccc2c(c1)c(=O)oc1ccccc12)N1CCCCC1 fall in? bin 1

Lab note: sort COCCSc1nnc(NC(=O)Cc2ccccc2OC)s1 into the matching inhibition band. bin 3

Hey, which category is c1cc2c(cc1Cn1cnnn1)OCO2 in, do you know? bin 3

Lab note: which band did CCCSC1=C(C#N)C(c2cc(OC)ccc2OC)CC(=O)N1 (centres undefined) land in? bin 3

Which bin should I file CC(=O)Nc1cccc(NC(=O)c2oc3ccccc3c2C)c1 under? bin 1

Class (by measured inhibition) for O=C(COc1ccccc1F)NC1CC1 bin 2

Band assignment needed for COc1cccc(C2CC(c3ccc(C)cc3)n3nc(N)nc3N2)c1 (centres undefined) please. bin 3

Which of the defined bands does the recorded inhibition of N#Cc1c(-c2ccccc2)nc(N2CCCCCC2)[nH]c1=O sit within? bin 2

Data provenance: PubChem BioAssay
